All figures here come from ChEMBL document CHEMBL4673352.

Biological target: CDK9/cyclin T1 (Homo sapiens, UniProt P50750)
Sequence (O60563 whole entry, the tested form may be a part): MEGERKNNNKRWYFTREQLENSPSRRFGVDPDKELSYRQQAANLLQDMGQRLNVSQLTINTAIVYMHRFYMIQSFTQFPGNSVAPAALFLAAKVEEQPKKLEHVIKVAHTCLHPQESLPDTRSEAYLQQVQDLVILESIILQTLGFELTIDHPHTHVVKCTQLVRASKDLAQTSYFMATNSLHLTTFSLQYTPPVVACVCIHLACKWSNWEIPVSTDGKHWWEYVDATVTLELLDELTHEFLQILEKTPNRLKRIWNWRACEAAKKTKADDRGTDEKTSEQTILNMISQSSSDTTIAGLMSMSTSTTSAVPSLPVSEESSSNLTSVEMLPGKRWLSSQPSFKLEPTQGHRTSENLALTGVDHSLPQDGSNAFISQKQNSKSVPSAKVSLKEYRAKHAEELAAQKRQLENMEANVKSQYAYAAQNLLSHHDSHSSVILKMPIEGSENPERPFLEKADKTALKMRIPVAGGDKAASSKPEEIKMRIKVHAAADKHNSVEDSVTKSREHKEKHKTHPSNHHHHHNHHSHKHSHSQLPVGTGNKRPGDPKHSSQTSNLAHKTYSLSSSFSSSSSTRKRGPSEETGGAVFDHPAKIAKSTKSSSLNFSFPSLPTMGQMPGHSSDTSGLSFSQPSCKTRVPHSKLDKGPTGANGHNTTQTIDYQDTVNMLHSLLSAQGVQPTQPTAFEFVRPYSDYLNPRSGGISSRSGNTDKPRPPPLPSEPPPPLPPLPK
Sequence (P50750 whole entry, the tested form may be a part): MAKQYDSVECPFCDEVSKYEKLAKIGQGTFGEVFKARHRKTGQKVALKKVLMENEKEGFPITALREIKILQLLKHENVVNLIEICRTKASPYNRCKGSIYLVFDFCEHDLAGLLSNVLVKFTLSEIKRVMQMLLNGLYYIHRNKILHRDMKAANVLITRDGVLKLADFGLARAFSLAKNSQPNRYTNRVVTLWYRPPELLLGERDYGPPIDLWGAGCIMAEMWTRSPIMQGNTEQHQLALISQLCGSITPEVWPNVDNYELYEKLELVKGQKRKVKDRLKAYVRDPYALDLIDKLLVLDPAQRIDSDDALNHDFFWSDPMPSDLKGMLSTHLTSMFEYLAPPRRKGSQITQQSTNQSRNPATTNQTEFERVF
Assay: Inhibition of recombinant full length human N-terminal GST-fused CDK9 (1 to 372 residues)/His-tagged CyclinT1 (1 to 726 residues) expressed in baculovirus infected insect cells using FITC-X-GSRTPMY-NH2 as substrate preincubated for 10 mins followed by MgCl2 addition and measured after 90 mins in presence of 5 mM ATP by mobility shift assay
Label t when IC50 is strictly below 300 nM; at or above that, label f.

Example entries and their recorded answers appear below.
molecule=CC(=O)N[C@@H]1CCC[C@H](C(=O)Nc2cc(-c3cnn4c3COCC4)c(Cl)cn2)C1 class=f
molecule=CC(=O)N[C@@H]1CCC[C@H](C(=O)Nc2cc(-c3nnn4c3CCCC4)c(Cl)cn2)C1 class=f
molecule=CC(=O)N[C@@H]1CCC[C@H](C(=O)Nc2cc(-c3cnn4c3CC(C)(C)C4)ccn2)C1 class=t
molecule=CC(=O)N[C@@H]1CCC[C@H](C(=O)Nc2cc(-c3cnc4n3CCCC4)c(Cl)cn2)C1 class=f
molecule=CC(=O)N[C@@H]1CCC[C@H](C(=O)Nc2cc(-c3cnc4ccccn34)c(Cl)cn2)C1 class=f

stdin: Does the reported IC50 of `CC(=O)N[C@@H]1CCC[C@H](C(=O)Nc2cc(-c3cnc4n3CCC4)c(Cl)cn2)C1` stay below 300 nM?
stdout: f

stdin: Does the reported IC50 of CC(=O)N[C@@H]1CCC[C@H](C(=O)Nc2cc(-c3cnn4c3CC(C)(C)C4O)c(Cl)cn2)C1 (some centres not stated) stay below 300 nM?
stdout: t
